- test-target: MYC (p64);MAX (p21), in MYC:MAX (human;human, UniProt P01106-1;P61244-2 1-439;1-151, |)
- Sequence (P01106 16-454, chain 1 of 2): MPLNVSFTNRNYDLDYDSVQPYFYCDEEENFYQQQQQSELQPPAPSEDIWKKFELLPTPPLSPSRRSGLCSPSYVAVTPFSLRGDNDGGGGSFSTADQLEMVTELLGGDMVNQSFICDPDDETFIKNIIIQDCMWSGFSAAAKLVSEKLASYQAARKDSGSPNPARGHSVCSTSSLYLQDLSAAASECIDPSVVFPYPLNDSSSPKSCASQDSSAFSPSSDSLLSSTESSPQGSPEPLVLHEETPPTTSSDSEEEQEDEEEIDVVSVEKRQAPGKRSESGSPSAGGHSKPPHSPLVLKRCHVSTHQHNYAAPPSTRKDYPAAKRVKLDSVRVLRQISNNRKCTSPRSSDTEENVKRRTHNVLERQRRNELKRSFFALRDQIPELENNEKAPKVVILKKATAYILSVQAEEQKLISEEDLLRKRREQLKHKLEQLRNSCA
- Sequence (P61244 other isoform, or with tags, fused parts or gaps |, chain 2 of 2): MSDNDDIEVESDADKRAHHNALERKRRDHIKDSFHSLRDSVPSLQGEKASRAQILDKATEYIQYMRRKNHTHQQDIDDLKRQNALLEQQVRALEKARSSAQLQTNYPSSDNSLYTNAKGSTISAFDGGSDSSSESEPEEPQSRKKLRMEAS
- protocol: protein-binding microarray (anti-MAX antibody); PBM: 15 mM Tris-HCl pH 7.5, 100 mM KCl, 0.075% NP40, 7.5 mM beta-mercaptoethanol, 375 ng/ul BSA, 8 ng/ul poly(dA-dT):(dA-dT), 550 ng complex, 60 min, room tempe; high values mean tight binding
- condition-notes: protein: recombinant;recombinant; tags: 6xHis;6xHis; copies: 1;1; label: 3' end of printed strand (linker) attached to glass slide; dsDNA, one strand shown
Over roughly 5,000 sequences, “log2 normalized fluorescence” has its median near 0.089; the highest 2% begin near 0.81. The sample as a whole holds a higher share of the highest values than the screen did.
binding signal for assorted sequences

{"columns": ["entry-sequence", "binding signal"],
 "data": [
  ["CCGGCGACCACGTGGTATTAATAGCTAAGATTACTATATCGACG", "0.741 log2 normalized fluorescence"],
  ["CCGGCGGACACGTCGTATTAATAGCTAAGATTACTATATCGACG", "0.287 log2 normalized fluorescence"],
  ["CCGGCCCACACGTGGTATTAATAGCTAAGATTACTATATCGACG", "0.945 log2 normalized fluorescence"],
  ["CCGGCCCACACGTGGTGTTAATAGCTAAGATTACTATATCGACG", "0.705 log2 normalized fluorescence"],
  ["CCGGCTGAGCAACTGTATTAATAGCTAAGATTACTATATCGACG", "0.128 log2 normalized fluorescence"],
  ["CCGGCTGAAACATCGTATTAATAGCTAAGATTACTATATCGACG", "0.226 log2 normalized fluorescence"],
  ["CCGGCGGACGCGTGGTATTAATAGCTAAGATTACTATATCGACG", "0.64 log2 normalized fluorescence"],
  ["CCGGCGCCCACGTGGTATTAATAGCTAAGATTACTATATCGACG", "0.862 log2 normalized fluorescence"],
  ["CCGGCGGACACGTGCTATTAATAGCTAAGATTACTATATCGACG", "0.839 log2 normalized fluorescence"],
  ["CCGGCTCCCACGTGGTATTAATAGCTAAGATTACTATATCGACG", "0.763 log2 normalized fluorescence"],
  ["CCGGCTGACGGACAGTATTAATAGCTAAGATTACTATATCGACG", "0.124 log2 normalized fluorescence"]
]}
